Please respond with reported Cmax for every item in the list.
procedure-summary: Pharmacokinetics of four flavonoids in rat plasma after oral aerial part of G. uralensis extract (HPLC-MS/MS)
Type: in vivo, Sprague Dawley (SD) rats
condition-details: Sprague Dawley, oral extract 1 g/kg every day, day 31, n = 6
Entry rule: numbers only, all in ng/mL.

Q: Param item = `O=C1C[C@@H](c2ccccc2)Oc2cc(O)cc(O)c21` ; retrieve measured Cmax.
Ans: 1.18

Q: Param item = `O=c1c(-c2ccc(O)cc2)coc2c([C@@H]3O[C@H](CO)[C@@H](O)[C@H](O)[C@H]3O)c(O)ccc12` ; retrieve measured Cmax.
Ans: 23.8

Q: Param item = `O=c1c(O)c(-c2ccc(O)cc2)oc2cc(O)cc(O)c12` ; retrieve measured Cmax.
Ans: 1.27

----------
procedure-summary: Pharmacokinetics of four flavonoids in rat plasma after oral aerial part of G. uralensis extract (HPLC-MS/MS)
Format: in vivo, Sprague Dawley (SD) rats
condition-details: Sprague Dawley, oral extract 1 g/kg every day, day 31, n = 6, read-out: MRT0–∞
measurement-label: MRT inf (h)
Entry rule: numbers only, all in h.

Q: Param item = `O=C1C[C@@H](c2ccccc2)Oc2cc(O)cc(O)c21` ; retrieve measured MRT inf.
Ans: 23.3

Q: Param item = `O=c1c(O)c(-c2ccc(O)cc2)oc2cc(O)cc(O)c12` ; retrieve measured MRT inf.
Ans: 31.8

Q: Param item = `O=c1c(-c2ccc(O)cc2)coc2c([C@@H]3O[C@H](CO)[C@@H](O)[C@H](O)[C@H]3O)c(O)ccc12` ; retrieve measured MRT inf.
Ans: 15.1

Q: Param item = `O=c1cc(-c2ccc(O)c(O)c2)oc2cc(O)cc(O)c12` ; retrieve measured MRT inf.
Ans: 44

----------
procedure-summary: Stability test of analytes in rat prostate homogenate QC samples
Format: in vitro ADME
condition-details: nominal puerarin 1.000, luteolin 5.000, kaempferol 100.000, pinocembrin 50.000, n = 3
measurement-label: Stability, Mean ± S.D., 24 h at room temperature, medium QC

Q: Param item = `O=C1C[C@@H](c2ccccc2)Oc2cc(O)cc(O)c21` ; retrieve measured Stability, Mean ± S.D., 24 h at room temperature, medium QC.
Ans: 51.000 ± 3.000 μg·mL^−1/μg·g^−1

Q: Param item = `O=c1c(O)c(-c2ccc(O)cc2)oc2cc(O)cc(O)c12` ; retrieve measured Stability, Mean ± S.D., 24 h at room temperature, medium QC.
Ans: 99.133 ± 3.557 μg·mL^−1/μg·g^−1

Q: Param item = `O=c1c(-c2ccc(O)cc2)coc2c([C@@H]3O[C@H](CO)[C@@H](O)[C@H](O)[C@H]3O)c(O)ccc12` ; retrieve measured Stability, Mean ± S.D., 24 h at room temperature, medium QC.
Ans: 1.097 ± 0.138 μg·mL^−1/μg·g^−1

Q: Param item = `O=c1cc(-c2ccc(O)c(O)c2)oc2cc(O)cc(O)c12` ; retrieve measured Stability, Mean ± S.D., 24 h at room temperature, medium QC.
Ans: 4.963 ± 0.118 μg·mL^−1/μg·g^−1

----------
procedure-summary: Pharmacokinetics of four flavonoids in rat plasma after oral aerial part of G. uralensis extract (HPLC-MS/MS)
Format: in vivo, Sprague Dawley (SD) rats
condition-details: Sprague Dawley, oral extract 1 g/kg every day, day 31, n = 6, read-out: MRT0–t
Please respond with reported MRT last for every item in the list.
Entry rule: numbers only, all in h.

Q: Param item = O=c1c(-c2ccc(O)cc2)coc2c([C@@H]3O[C@H](CO)[C@@H](O)[C@H](O)[C@H]3O)c(O)ccc12 [Puerarin] ; retrieve measured MRT last.
Ans: 14.4

Q: Param item = O=C1C[C@@H](c2ccccc2)Oc2cc(O)cc(O)c21 [Pinocembrin] ; retrieve measured MRT last.
Ans: 19.1

Q: Param item = O=c1cc(-c2ccc(O)c(O)c2)oc2cc(O)cc(O)c12 [Luteolin] ; retrieve measured MRT last.
Ans: 20.7

Q: Param item = O=c1c(O)c(-c2ccc(O)cc2)oc2cc(O)cc(O)c12 [Kaempferol] ; retrieve measured MRT last.
Ans: 20.1

----------
Please respond with reported Tmax for every item in the list.
procedure-summary: Pharmacokinetics of four flavonoids in rat plasma after oral aerial part of G. uralensis extract (HPLC-MS/MS)
Format: in vivo, Sprague Dawley (SD) rats
condition-details: Sprague Dawley, oral extract 1 g/kg every day, day 31, n = 6
Entry rule: numbers only, all in h.

Q: Param item = `O=c1c(-c2ccc(O)cc2)coc2c([C@@H]3O[C@H](CO)[C@@H](O)[C@H](O)[C@H]3O)c(O)ccc12` ; retrieve measured Tmax.
Ans: 0.5

Q: Param item = `O=C1C[C@@H](c2ccccc2)Oc2cc(O)cc(O)c21` ; retrieve measured Tmax.
Ans: 1.5

Q: Param item = `O=c1cc(-c2ccc(O)c(O)c2)oc2cc(O)cc(O)c12` ; retrieve measured Tmax.
Ans: 0.87

Q: Param item = `O=c1c(O)c(-c2ccc(O)cc2)oc2cc(O)cc(O)c12` ; retrieve measured Tmax.
Ans: 4

----------
procedure-summary: Pharmacokinetics of four flavonoids in rat plasma after oral aerial part of G. uralensis extract (HPLC-MS/MS)
Type: in vivo, Sprague Dawley (SD) rats
condition-details: Sprague Dawley, oral extract 1 g/kg every day, day 31, n = 6
measurement-label: half-life (h)
Entry rule: numbers only, all in h.

Q: Param item = `O=c1c(O)c(-c2ccc(O)cc2)oc2cc(O)cc(O)c12` ; retrieve measured half-life.
Ans: 19

Q: Param item = `O=C1C[C@@H](c2ccccc2)Oc2cc(O)cc(O)c21` ; retrieve measured half-life.
Ans: 13.2

Q: Param item = `O=c1cc(-c2ccc(O)c(O)c2)oc2cc(O)cc(O)c12` ; retrieve measured half-life.
Ans: 31.1

----------
procedure-summary: Pharmacokinetics of four flavonoids in rat plasma after oral aerial part of G. uralensis extract (HPLC-MS/MS)
Type: in vivo, Sprague Dawley (SD) rats
condition-details: Sprague Dawley, oral extract 1 g/kg every day, day 31, n = 6
Please respond with reported AUC(0-inf) for every item in the list.
Entry rule: numbers only, all in ng·h/mL.

Q: Param item = `O=c1cc(-c2ccc(O)c(O)c2)oc2cc(O)cc(O)c12` ; retrieve measured AUC(0-inf).
Ans: 51.6

Q: Param item = `O=c1c(O)c(-c2ccc(O)cc2)oc2cc(O)cc(O)c12` ; retrieve measured AUC(0-inf).
Ans: 23.8

Q: Param item = `O=C1C[C@@H](c2ccccc2)Oc2cc(O)cc(O)c21` ; retrieve measured AUC(0-inf).
Ans: 23.8

Q: Param item = `O=c1c(-c2ccc(O)cc2)coc2c([C@@H]3O[C@H](CO)[C@@H](O)[C@H](O)[C@H]3O)c(O)ccc12` ; retrieve measured AUC(0-inf).
Ans: 242

----------
Please respond with reported AUC(0-t) for every item in the list.
procedure-summary: Pharmacokinetics of four flavonoids in rat plasma after oral aerial part of G. uralensis extract (HPLC-MS/MS)
Type: in vivo, Sprague Dawley (SD) rats
condition-details: Sprague Dawley, oral extract 1 g/kg every day, day 31, n = 6
Entry rule: numbers only, all in ng·h/mL.

Q: Param item = O=c1c(O)c(-c2ccc(O)cc2)oc2cc(O)cc(O)c12 [Kaempferol] ; retrieve measured AUC(0-t).
Ans: 18.8

Q: Param item = O=C1C[C@@H](c2ccccc2)Oc2cc(O)cc(O)c21 [Pinocembrin] ; retrieve measured AUC(0-t).
Ans: 21.8

Q: Param item = O=c1c(-c2ccc(O)cc2)coc2c([C@@H]3O[C@H](CO)[C@@H](O)[C@H](O)[C@H]3O)c(O)ccc12 [Puerarin] ; retrieve measured AUC(0-t).
Ans: 238

----------
procedure-summary: Stability test of analytes in rat prostate homogenate QC samples
Format: in vitro ADME
condition-details: three freeze-thaw cycles, nominal puerarin 5.000, luteolin 10.000, kaempferol 200.000, pinocembrin 100.000, n = 3
Please respond with reported Stability, Mean ± S.D., freeze-thaw cycles, high QC for every item in the list.
Entry rule: numbers only, all in μg·mL^−1/μg·g^−1.

Q: Param item = `O=c1c(-c2ccc(O)cc2)coc2c([C@@H]3O[C@H](CO)[C@@H](O)[C@H](O)[C@H]3O)c(O)ccc12` ; retrieve measured Stability, Mean ± S.D., freeze-thaw cycles, high QC.
Ans: 5.057

Q: Param item = `O=C1C[C@@H](c2ccccc2)Oc2cc(O)cc(O)c21` ; retrieve measured Stability, Mean ± S.D., freeze-thaw cycles, high QC.
Ans: 102.333

Q: Param item = `O=c1cc(-c2ccc(O)c(O)c2)oc2cc(O)cc(O)c12` ; retrieve measured Stability, Mean ± S.D., freeze-thaw cycles, high QC.
Ans: 10.433

Q: Param item = `O=c1c(O)c(-c2ccc(O)cc2)oc2cc(O)cc(O)c12` ; retrieve measured Stability, Mean ± S.D., freeze-thaw cycles, high QC.
Ans: 202.333
